ASSAYED_TARGET: hTRPA1 (Homo sapiens)
Sequence (O75762 whole entry): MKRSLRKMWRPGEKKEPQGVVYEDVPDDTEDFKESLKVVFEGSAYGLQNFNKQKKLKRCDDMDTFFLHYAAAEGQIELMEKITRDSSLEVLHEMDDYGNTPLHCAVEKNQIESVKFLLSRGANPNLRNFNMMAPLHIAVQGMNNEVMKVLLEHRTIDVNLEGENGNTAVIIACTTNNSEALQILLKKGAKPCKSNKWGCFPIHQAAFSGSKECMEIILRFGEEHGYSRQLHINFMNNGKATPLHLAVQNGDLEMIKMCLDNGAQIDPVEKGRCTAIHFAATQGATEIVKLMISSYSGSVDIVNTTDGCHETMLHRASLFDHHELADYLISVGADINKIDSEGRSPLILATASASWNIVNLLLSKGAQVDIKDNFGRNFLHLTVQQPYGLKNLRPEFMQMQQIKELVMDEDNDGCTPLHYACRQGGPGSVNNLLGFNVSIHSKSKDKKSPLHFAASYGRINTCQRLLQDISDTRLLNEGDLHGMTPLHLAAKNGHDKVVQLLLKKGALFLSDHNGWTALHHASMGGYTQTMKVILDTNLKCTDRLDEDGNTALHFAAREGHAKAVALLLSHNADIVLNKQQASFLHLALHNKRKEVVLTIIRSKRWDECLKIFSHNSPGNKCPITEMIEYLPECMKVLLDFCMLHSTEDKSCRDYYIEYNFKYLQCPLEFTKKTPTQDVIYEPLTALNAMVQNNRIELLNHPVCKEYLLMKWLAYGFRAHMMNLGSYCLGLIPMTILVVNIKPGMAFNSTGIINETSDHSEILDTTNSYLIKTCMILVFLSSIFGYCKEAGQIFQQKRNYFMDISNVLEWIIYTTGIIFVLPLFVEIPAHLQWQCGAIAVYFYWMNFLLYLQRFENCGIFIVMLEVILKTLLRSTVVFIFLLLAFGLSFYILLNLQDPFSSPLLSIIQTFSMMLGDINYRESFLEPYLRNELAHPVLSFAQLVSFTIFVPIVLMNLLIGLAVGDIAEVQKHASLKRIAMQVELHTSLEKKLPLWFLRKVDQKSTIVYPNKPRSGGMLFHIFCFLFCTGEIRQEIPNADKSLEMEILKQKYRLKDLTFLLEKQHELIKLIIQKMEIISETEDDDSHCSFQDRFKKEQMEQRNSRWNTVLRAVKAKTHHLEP
PROCEDURE_DETAILS: intracellular calcium fluorescence assay (Calcium […] dye, FlexStation […])

COMPOUND	EC50, µM
O=CC=Cc1ccccc1 [cinnamaldehyde]	12
CCCCC/C=C\C/C=C\C/C=C\C/C=C\CCCC(=O)OC(CO)CO [2-arachidonoylglycerol]	10
CCCCCc1cc(O)c2c(c1)OC(C)(C)[C@@H]1CCC(C)=C[C@@H]21 [Δ9-tetrahydrocannabinol]	9

====

ASSAYED_TARGET: hTRPV1 (Homo sapiens, UniProt Q8NER1)
Sequence (Q8NER1 whole entry): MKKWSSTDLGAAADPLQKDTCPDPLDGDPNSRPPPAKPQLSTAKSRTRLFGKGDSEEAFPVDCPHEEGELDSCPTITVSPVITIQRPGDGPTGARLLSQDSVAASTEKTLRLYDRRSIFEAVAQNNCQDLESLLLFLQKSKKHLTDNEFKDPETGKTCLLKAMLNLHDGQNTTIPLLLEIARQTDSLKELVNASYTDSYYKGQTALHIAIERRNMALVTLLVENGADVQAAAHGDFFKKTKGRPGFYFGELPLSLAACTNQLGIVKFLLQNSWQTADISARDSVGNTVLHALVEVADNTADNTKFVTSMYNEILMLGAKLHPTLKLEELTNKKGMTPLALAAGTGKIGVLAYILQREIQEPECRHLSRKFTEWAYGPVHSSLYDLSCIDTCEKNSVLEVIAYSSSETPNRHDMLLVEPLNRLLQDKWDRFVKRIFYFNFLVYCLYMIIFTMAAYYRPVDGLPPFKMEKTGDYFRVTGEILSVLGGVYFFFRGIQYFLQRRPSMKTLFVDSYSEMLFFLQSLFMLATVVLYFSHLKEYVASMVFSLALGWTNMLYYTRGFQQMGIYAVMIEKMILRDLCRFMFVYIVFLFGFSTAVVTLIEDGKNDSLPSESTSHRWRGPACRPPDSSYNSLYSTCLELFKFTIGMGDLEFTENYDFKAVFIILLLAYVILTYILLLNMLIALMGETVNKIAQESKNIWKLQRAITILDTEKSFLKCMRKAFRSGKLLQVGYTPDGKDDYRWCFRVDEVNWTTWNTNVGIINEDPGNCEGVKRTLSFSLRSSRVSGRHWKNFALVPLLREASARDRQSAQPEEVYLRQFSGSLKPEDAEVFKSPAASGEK
PROCEDURE_DETAILS: intracellular calcium fluorescence assay (Calcium […] dye, FlexStation […])

COMPOUND	UNIT_ANNOTATION	EC50
CCCCC/C=C\C/C=C\C/C=C\C/C=C\CCCC(=O)NCCO [anandamide]	µM	4.3
